Source of measurements: the supplement of paper PMC11451515

# System: P12-Ichikawa
# assay-remarks: cell viability relative to DMSO control; higher = less cytotoxic
# measurement-parameters: HPLM + 10% dialyzed FBS; 48 h; 0.569 µM
Exercise: for every item that follows, state its recorded cell viability.
Please report the result as a number followed by the unit.

Worked cases, cell viability given:
[
  {
    "molecule": "COc1cc2ncnc(Nc3ccc(F)c(Cl)c3)c2cc1OCCCN1CCOCC1",
    "cell viability": "117%"
  },
  {
    "molecule": "CN(C)CCC=C1C2=C(C=CC=C2)\\C=C/C3=C1C=CC=C3",
    "cell viability": "106%"
  },
  {
    "molecule": "Cn1c(=O)c2c(ncn2CC(O)CO)n(C)c1=O (configuration not stated)",
    "cell viability": "115%"
  },
  {
    "molecule": "CC(C)(O)CNc1nc(Nc2ccnc(C(F)(F)F)c2)nc(-c2cccc(C(F)(F)F)n2)n1",
    "cell viability": "99.4%"
  },
  {
    "molecule": "Cc1cc(SCc2sc(-c3ccc(C(F)(F)F)c(F)c3)nc2C)ccc1OCC(=O)O",
    "cell viability": "106%"
  }
]

Would you be so kind as to report cell viability for each listed record?
1. N=C(N)c1ccc(OCCCCCOc2ccc(C(=N)N)cc2)cc1
2. c1ccc2c(-c3cnn4cc(-c5ccc(N6CCNCC6)cc5)cnc34)ccnc2c1
3. COc1ccc(Cn2ccc3ccc(C(=O)NO)cc32)cc1
4. c1ccc(-c2nn3c(c2-c2ccnc4cc(OCCN5CCOCC5)ccc24)CCC3)nc1
5. O=P(O)(O)C(O)(Cc1cccnc1)P(=O)(O)[O][Na] (configuration not stated)
6. CC(C)[C@@H](N(CCCN)C(=O)C1=CC=C(C)C=C1)C/2=C(\CC3=CC=CC=C3)C(=O)C4=C(O2)C=C(Cl)C=C4
7. CCCn1c(=O)c2[nH]c(-c3cnn(Cc4cccc(C(F)(F)F)c4)c3)nc2n(CC)c1=O

### Response
101%
146%
120%
97%
105%
12.2%
109%

Would you be so kind as to report cell viability for each listed record?
1. CCCCc1oc2ccc(NS(C)(=O)=O)cc2c1C(=O)c1ccc(OCCCN(CCCC)CCCC)cc1
2. CN(C)c1ccc(C(=O)NCCCCCCC(=O)NO)cc1

### Response
1. 110%
2. 102%

Would you be so kind as to report cell viability for each listed record?
1. CC1(C)OC/2=C(\[C@H](NCC3=CC=CC=C3)[C@@H]1O)C(=O)C4=CC=CC=C4C2=O
2. CN[C@@H](C)C(=O)N[C@H]1CCCC[C@H]2CC[C@@H](C(=O)N[C@@H](c3ccccc3)c3cn(CCCCc4ccc(CCCCn5cc([C@@H](NC(=O)[C@@H]6CC[C@@H]7CCCC[C@H](NC(=O)[C@H](C)NC)C(=O)N76)c6ccccc6)nn5)cc4)nn3)N2C1=O
3. Cn1cc(-c2ccncc2)c(-c2ccc(OCc3ccc4ccccc4n3)cc2)n1

### Response
1: 102%; 2: 94.8%; 3: 115%

* * *

Exercise: for every item that follows, state its recorded cell viability.
# System: SEM cells
# assay-remarks: cell viability relative to DMSO control; higher = less cytotoxic
# measurement-parameters: RPMI 5 mM glucose + 10% FBS; 48 h; 1.71 µM
One number for each entry, in %.

Worked cases, cell viability given:
[
  {
    "molecule": "CCCCc1oc2ccc(NS(C)(=O)=O)cc2c1C(=O)c1ccc(OCCCN(CCCC)CCCC)cc1",
    "cell viability / %": 108
  },
  {
    "molecule": "N/C(=N\\C(=O)c1nc(Cl)c(N)nc1N)NCc1ccccc1",
    "cell viability / %": 97.3
  },
  {
    "molecule": "CC(C)(O)CNc1nc(Nc2ccnc(C(F)(F)F)c2)nc(-c2cccc(C(F)(F)F)n2)n1",
    "cell viability / %": 64.7
  },
  {
    "molecule": "c1cc(OCCN2CCCCC2)cc(-c2n[nH]c3ccc(-c4nc[nH]n4)cc23)c1",
    "cell viability / %": 54.4
  },
  {
    "molecule": "COc1cc(N2CCC(N3CCN(C)CC3)CC2)ccc1Nc1ncnc(Nc2ccccc2[S+](=O)([O-])C(C)C)n1",
    "cell viability / %": 81
  }
]

Would you be so kind as to report cell viability for each listed record?
1. CC1=C2N=C([NH]C2=CC(=C1)N3CCOCC3)\C4=C(NC[C@@H](O)C5=CC=CC(=C5)Cl)\C=C/NC4=O
2. COc1ccc(-c2c(-c3ccc(O)cc3O)n[nH]c2C)cc1
3. C[C@H]1CCC/C=C/C2C[C@H](O)C[C@H]2[C@H](O)/C=C/C(=O)O1 (stereo not given in full)
4. Nc1ccc([S+](=O)([O-])Nc2ccccn2)cc1
5. CCCn1c(=O)c2[nH]c(C34CC5CC3C[C@@H](C5)C4)nc2n(CCC)c1=O
6. CCCn1c(=O)c2[nH]c(-c3cnn(Cc4cccc(C(F)(F)F)c4)c3)nc2n(CC)c1=O
7. CC(C)[C@@H](N(CCCN)C(=O)C1=CC=C(C)C=C1)C/2=C(\CC3=CC=CC=C3)C(=O)C4=C(O2)C=C(Cl)C=C4

### Response
1: 56.2; 2: 84.3; 3: 4.83; 4: 119; 5: 97.2; 6: 94.4; 7: 19.1

* * *

# System: SEM cells
# assay-remarks: cell viability relative to DMSO control; higher = less cytotoxic
# measurement-parameters: RPMI 5 mM glucose + 10% dialyzed FBS; 48 h; 15.4 µM
measurement-kind: cell viability (%)
One number for each entry, in %.

[
  {
    "compound": "COc1cc2ncnc(Nc3ccc(F)c(Cl)c3)c2cc1OCCCN1CCOCC1",
    "cell viability, %": 82
  },
  {
    "compound": "COc1ccc2cc(-c3[nH]c(-c4ccc([S+](C)[O-])cc4)nc3-c3ccncc3)ccc2c1 (stereo not drawn)",
    "cell viability, %": 116
  },
  {
    "compound": "COc1cc2c(NC3CCN(C(C)C)CC3)nc(C3CCCCC3)nc2cc1OCCCN1CCCC1",
    "cell viability, %": 93.5
  },
  {
    "compound": "C[C@H]1CCC/C=C/C2C[C@H](O)C[C@H]2[C@H](O)/C=C/C(=O)O1 (stereo partly drawn)",
    "cell viability, %": 1.85
  },
  {
    "compound": "CC(Oc1ccc(O)cc1)(P(=O)(O)O)P(=O)(O)O",
    "cell viability, %": 55.1
  },
  {
    "compound": "O=C1[O][Pt]2([NH]C3CCCCC3[NH]2)[O]C1=O (stereo not drawn)",
    "cell viability, %": 3.5
  },
  {
    "compound": "CCOC(=O)c1ncn2c1CN(C)C(=O)c1cc(F)ccc1-2",
    "cell viability, %": 79.6
  },
  {
    "compound": "CC1(C)CC(=O)c2c(C(F)(F)F)nn(-c3ccc(C(N)=O)c(NC4CCC(OC(=O)CN)CC4)c3)c2C1 (stereo not drawn)",
    "cell viability, %": 14.3
  },
  {
    "compound": "CN1C(=O)COc2c(C(=O)NC3CN4CCC3CC4)cc(Cl)cc21 (stereo not drawn)",
    "cell viability, %": 131
  },
  {
    "compound": "N=C(N)c1ccc(OCCCCCOc2ccc(C(=N)N)cc2)cc1",
    "cell viability, %": 120
  }
]

Would you be so kind as to report cell viability for each listed record?
1. COC(=O)N[C@H](C(=O)N[C@@H](Cc1ccccc1)[C@@H](O)CN(Cc1ccc(-c2ccccn2)cc1)NC(=O)[C@@H](NC(=O)OC)C(C)(C)C)C(C)(C)C
2. C[C@H]1[C@@H](CC(C[C@H]2O[C@@H]3O[C@]4(C)CC[C@H]5[C@H](C)CC[C@@H]([C@H]2C)[C@@]35OO4)C[S+](=O)([O-])c2ccc(COC(=O)N(C)C)cc2)O[C@@H]2O[C@]3(C)CC[C@H]4[C@H](C)CC[C@@H]1[C@@]24OO3
3. COC1=CC=C2C(=CC=NC2=C1)OC3=CC=C(NC(=O)\C4=C(C)\N(CC(C)(C)O)N(C4=O)C5=CC=CC=C5)C=C3F
4. NC/1=N/C(=O)N(/C=C1)[C@H]2CC[C@@H](CO)O2
5. COC1=C(OC)C(=O)C(C/C=C(\C)CC/C=C(\C)CC/C=C(\C)CC/C=C(\C)CC/C=C(\C)CC/C=C(\C)CC/C=C(\C)CC/C=C(\C)CC/C=C(\C)CCC=C(C)C)=C(C)C1=O
6. CN(C)[C@H]\1[C@@H]2[C@@H](O)[C@@H]\3C(=C)C4=C(C(=CC=C4)O)C(=O)C3=C(\O)[C@@]2(O)C(=O)\C(=C1O)C(N)=O

### Response
123
6.47
35.8
17.2
126
107

Would you be so kind as to report cell viability for each listed record?
1. CCN(CC)CCOC1=CC=C(NC2=NC=C3\C=C(/C(=O)N(C)C3=N2)C4=C(Cl)C=CC=C4Cl)C=C1
2. CN(C)CCC=C1C2=C(C=CC=C2)\C=C/C3=C1C=CC=C3
3. COc1ccc(Cn2ccc3ccc(C(=O)NO)cc32)cc1
4. C[C@@]12OC(=O)[C@@]1(NC(=O)[C@@H]2CCCl)[C@@H](O)[C@H]\3CCC\C=C3
5. NC12CC3CC(CC(C3)C1)C2
6. CN1[C@@H]2CC(O)C[C@H]1[C@@H]1O[C@@H]12 (stereo partly drawn)
7. Clc1ccc(COC(Cn2ccnc2)c2ccc(Cl)cc2Cl)cc1 (stereo not drawn)

### Response
8.59
108
111
3.72
131
81.4
79.7
